- Target Under Test: GLuc secretion (model Sec61 substrate) from U87-MG-GLuc cells (Homo sapiens)
- Sequence (P61619 whole entry): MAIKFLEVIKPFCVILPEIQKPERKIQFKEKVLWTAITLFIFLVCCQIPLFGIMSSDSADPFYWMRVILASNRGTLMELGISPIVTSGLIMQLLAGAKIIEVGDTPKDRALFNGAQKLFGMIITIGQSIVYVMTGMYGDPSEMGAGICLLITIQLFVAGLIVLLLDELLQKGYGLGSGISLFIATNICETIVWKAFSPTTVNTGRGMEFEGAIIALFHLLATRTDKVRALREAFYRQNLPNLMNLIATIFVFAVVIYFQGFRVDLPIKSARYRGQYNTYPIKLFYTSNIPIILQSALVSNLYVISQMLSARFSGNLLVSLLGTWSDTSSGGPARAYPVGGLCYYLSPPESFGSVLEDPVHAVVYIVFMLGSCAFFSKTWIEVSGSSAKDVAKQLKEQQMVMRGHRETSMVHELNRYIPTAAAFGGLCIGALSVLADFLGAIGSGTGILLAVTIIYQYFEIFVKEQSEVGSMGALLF
- Assay Details: Gaussia luciferase (GLuc) secretory assay
- Condition Parameters: 18-h incubation, n = 3, read-out: IC50 (50% inhibition of GLuc expression)
Positions of bridges follow the written chain, without caps; N, C: chain ends. Non-standard residues stand in square brackets, D forms with d. Residues, ends and D or L forms follow the SMILES beside them. *: point of attachment. NMe2Val = CC(C)[C@@H](C(=O)*)N(C)C; NMeI = CC[C@H](C)[C@H](NC)C(=O)O; NMeL = CN[C@@H](CC(C)C)C(=O)O; NMeDap = CN[C@@H](CN)C(=O)O; dHiv = CC(C)[C@@H](O)C(=O)O; NMeA = CN[C@@H](C)C(=O)O; dNMeA = CN[C@H](C)C(=O)O
Measured Attribute: pIC50
Note: pIC50 values are expressed as the negative base-10 logarithm of concentration in M.

Q. Find the recorded pIC50 belonging to CC[C@H](C)[C@H]1C(=O)N[C@@H](C)C(=O)N(C)[C@@H](CC(C)C)C(=O)N[C@@H](Cc2ccc(OC)cc2)C(=O)N(C)[C@H](C)C(=O)N[C@H](C)[C@H](N(C)C(=O)[C@H](CC(C)C)N(C)C(=O)[C@H](C)N(C)C(=O)[C@H](OC(=O)[C@H](C(C)C)N(C)C)C(C)C)C(=O)N(C)[C@@H](C)C(=O)N1C [Peptide 16a] and report it.
A. 9.15

Q. Find the recorded pIC50 belonging to CC[C@H](C)[C@H]1C(=O)N[C@@H](C)C(=O)N(C)[C@@H](CC(C)C)C(=O)N[C@@H](Cc2ccc(OC)cc2)C(=O)N(C)[C@H](C)/C=C/[C@H](C)[C@H](N(C)C(=O)[C@H](CC(C)C)N(C)C(=O)[C@H](C)N(C)C(=O)[C@H](OC(=O)[C@H](C(C)C)N(C)C)C(C)C)C(=O)N(C)[C@@H](C)C(=O)N1C [Peptide 3b] and report it.
A. 7.89

Q. Find the recorded pIC50 belonging to CC[C@H](C)[C@H]1C(=O)N[C@@H](C)C(=O)N(C)[C@@H](CC(C)C)C(=O)N[C@@H](Cc2ccc(OC)cc2)C(=O)N(C)[C@H](C)C(=O)NC[C@H](N(C)C(=O)[C@H](CC(C)C)N(C)C(=O)[C@H](C)N(C)C(=O)[C@H](OC(=O)[C@H](C(C)C)N(C)C)C(C)C)C(=O)N(C)[C@@H](C)C(=O)N1C [Peptide 17a] (NMe2Val-[dHiv][NMeA][NMeL][NMeDap][NMeA][NMeI]A[NMeL]Y(Me)[dNMeA]; lactam 4-C) and report it.
A. 7.52
